- Test system: rodent lifetime carcinogenesis bioassay, tumor incidence TD50
- Method: carcinogenic potency in animals, long-term in vivo studies, CPDB compilation (AID 1745844)
- Conditions: rat; strain Fischer 344; males; in feed; site: forestomach; lesion: squamous-cell papilloma; dosed 104 weeks; study length 105 weeks
Assay Metric: TD50

Per the records, this compound ( OCC(CO)(CBr)CBr ) has TD50 equal to 16000 mg/kg/day

----------
- Test system: rodent lifetime carcinogenesis bioassay, tumor incidence TD50
- Method: carcinogenic potency in animals, long-term in vivo studies, CPDB compilation (AID 1745844)
- Conditions: monkey; strain Cynomolgus [Macaca fascicularis]; both sexes; several routes; site: any site (literature study); lesion: malignant tumor; dosed 825 weeks; study length 980 weeks
Assay Metric: TD50 (mg/kg/day)
Answer with a number only, understood to be in mg/kg/day.

Entry under test: CNNCc1ccc(C(=O)NC(C)C)cc1 . Its TD50 was 1.73
